Here the recorded inhibition at 100 µM is given for each entry.
# studyTarget: FXa enzyme (Bos taurus)
# Sequence (P00743 234-492 limits assumed): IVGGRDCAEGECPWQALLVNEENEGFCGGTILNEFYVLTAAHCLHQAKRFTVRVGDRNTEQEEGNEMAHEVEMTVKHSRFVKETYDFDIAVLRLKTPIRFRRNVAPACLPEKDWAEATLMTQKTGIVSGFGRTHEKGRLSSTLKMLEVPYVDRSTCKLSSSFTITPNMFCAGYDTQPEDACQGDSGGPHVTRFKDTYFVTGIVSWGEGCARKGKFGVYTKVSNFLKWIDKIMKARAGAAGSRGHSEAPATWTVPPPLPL
# Sequence (P00743 41-180 partner limits assumed): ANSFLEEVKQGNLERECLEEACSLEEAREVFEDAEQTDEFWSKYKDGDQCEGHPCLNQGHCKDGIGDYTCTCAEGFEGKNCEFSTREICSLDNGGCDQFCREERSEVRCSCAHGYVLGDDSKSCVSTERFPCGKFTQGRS
# testDetails: FXa in vitro inhibition assay (fluorometric SensoLyte Factor Xa Assay Kit)
# protocolConditions: read-out: %Inhibition FXa, inhibition percentage at 100 μM
The reply should be a number in %, with the unit left off.

Example molecules with recorded inhibition at 100 µM:
[[record]]
molsmiles = "O=C(Cn1cc(-c2ccc(Br)cc2)nn1)Nc1ccc(N2CCCCC2=O)c(F)c1"
studytarget = "FXa enzyme (Bos taurus)"
propertylabel = "inhibition at 100 µM"
u = "%"
result = 29

[[record]]
molsmiles = "O=C(Cn1cc(-c2ccc(F)cc2)nn1)Nc1ccc(N2CCOCC2=O)c(F)c1"
studytarget = "FXa enzyme (Bos taurus)"
propertylabel = "inhibition at 100 µM"
u = "%"
result = 36

[[record]]
molsmiles = "O=C(Cn1cc(-c2ccccc2)nn1)Nc1ccc(N2CCSCC2=O)c(F)c1"
studytarget = "FXa enzyme (Bos taurus)"
propertylabel = "inhibition at 100 µM"
u = "%"
result = 33

[[record]]
molsmiles = "Cc1ccc(-c2cn(CC(=O)Nc3ccc(N4CCOCC4=O)c(F)c3)nn2)cc1"
studytarget = "FXa enzyme (Bos taurus)"
propertylabel = "inhibition at 100 µM"
u = "%"
result = 37


Now look at this entry.
Give its inhibition at 100 µM value. Item: O=C(Cn1cc(-c2ccc(Cl)cc2)nn1)Nc1ccc(N2CCCCC2=O)c(F)c1
29
